target: A-beta 1-42 aggregates formed by precipitation with zinc (Homo sapiens, UniProt P05067)
Construct: host or cells: chemically synthesised peptide
Sequence (P05067 672-713 limits assumed): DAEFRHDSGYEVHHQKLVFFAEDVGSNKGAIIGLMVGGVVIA
assay.explanation: Assay 17 synthetic amyloid plaque disaggregation assay (thioflavin T)
Type: biochemical
test.conditions: 5 uM (printed as 5/%)
Protocol: Assay 17. Synthetic Amyloid Plaque Disaggregation Assay This assay measures the ability of test compounds to dissolve aggregates of synthetic Alzheimer's A-beta 42 residue peptide formed by precipitation with zinc. The synthetic plaque disaggregation assay is a thioflavin T fluorescence-based assay which measures the ability of a test compound to disaggregate synthetic aggregates generated by the incubation of Alzheimer's amyloid A-beta protein (Aβ) in the presence of zinc. […]
Reported Assay 17 percentage disaggregation at 5 uM by item:
measurement.label: Assay 17 percentage disaggregation at 5 uM

# test.smiles, observed
rows = [
    ("O=c1c2c(Cl)ccc(O)c2ncn1CC1CC1", "16 5/%"),
    ("Br.O=c1c2c(Cl)cc(Cl)c(O)c2ncn1Cc1cccc(Cn2cnc3c(O)c(Cl)cc(Cl)c3c2=O)n1", "45 5/%"),
    ("Br.O=c1c2c(Cl)cc(Cl)c(O)c2ncn1Nc1ccc(F)cc1F", "42%"),
    ("CCN(CC)Cc1nc2c(O)c(Cl)cc(Cl)c2c(=O)[nH]1", "41 5/%"),
]

----------
assay.explanation: Assay 16 mouse plasma levels of test compounds
Assay type: in vivo
test.conditions: mouse, plasma, po, 30 mg/kg, 30 min after oral dosing at 30 mg/kg, single mouse; read-out: Conc. in mouse plasma
Each record here notes measured concentration at 30 min.
measurement.label: concentration at 30 min (ng/mL)

# test.smiles, value.unit, observed
data = [
    ("O=c1c2c(Cl)cc(Cl)c(O)c2ncn1CCN1CCCC1", "ng/mL", 431),
    ("O=c1c2c(Cl)cc(Cl)c(O)c2ncn1Cc1ccccn1", "ng/mL", 731),
    ("Br.O=c1c2c(Cl)cc(Cl)c(O)c2ncn1CC1CC1", "ng/mL", 2330),
]

----------
Structures can show the parent of a compound that is named as a salt.
IC50 data for Aβ 1-42 (Homo sapiens) follow.
measurement.label: IC50

# molecule, observed
data = [
    ("Br.CCCn1cnc2c(O)c(Cl)cc(Cl)c2c1=O [Compound 1097]", "280 nM"),
    ("Nn1cnc2c(O)c(Cl)cc(Cl)c2c1=O [Compound 1099, hydrobromide]", "690 nM"),
    ("CCn1cnc2c(O)ccc(Cl)c2c1=O [Compound 1130]", "880 nM"),
    ("CCN(CC)Cc1nc2c(O)c(Cl)cc(Cl)c2c(=O)[nH]1 [Compound 1128]", "340 nM"),
    ("Br.CC(C)n1cnc2c(O)c(Cl)cc(Cl)c2c1=O [Compound 1108]", "250 nM"),
    ("CCn1nccc1-n1cnc2c(O)c(Cl)cc(Cl)c2c1=O [Compound 1088]", "840 nM"),
]

----------
assay.explanation: Assay 3(d) test compound cytotoxicity (MTS);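 also: Primary cortical neurons from embryonic day 14 BL6Jx129sv mouse cortices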
Format: cell-based
test.conditions: BL6Jx129sv, mouse, primary cortical neuronal cultures, 10 uM, cortical neurons, read-out: Assay 3(d) Cytotoxicity (% viable at 10 uM)
measurement.label: viability at 4 days, 10 µM (%)

# test.smiles, measurement.label, value.unit, observed
measured = [
    ("Br.CC(C)n1cnc2c(O)c(Cl)cc(Cl)c2c1=O", "viability at 4 days, 10 µM", "%", 53),
    ("O=c1c2c(Cl)cc(Cl)c(O)c2ncn1CCc1ccccn1", "viability at 4 days, 10 µM", "%", 92),
    ("Br.CCCn1cnc2c(O)c(Cl)cc(Cl)c2c1=O", "viability at 4 days, 10 µM", "%", 78),
    ("Cn1c(-n2cnc3c(O)c(Cl)cc(Cl)c3c2=O)nc2ccccc21", "viability at 4 days, 10 µM", "%", 97),
    ("Cc1noc(C)c1Cn1cnc2c(O)c(Cl)cc(Cl)c2c1=O", "viability at 4 days, 10 µM", "%", 72),
]
